Each entry below lists one item and its recorded growth inhibition value.
# assay-protocol: NCI Yeast Anticancer Drug Screen. Data for the rad50 strain (AID 155);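 further: 0% = growth of vehicle-only cultures of the same strain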
# setup-conditions: S. cerevisiae rad50 strain growth inhibition; at 50.0 µM; stronger effect = higher value
This is part of a sample that, as a whole, favours compounds with a hit. Of some 79,000 tested, about 15% had one in any assay.
endpoint: growth inhibition (%)

> print(dat)
                                   compound           endpoint  unit  result.value
1  C=C1COC(/C=C(\C)CC/C=C(\C)CCl)C1 (stereo unspecified)  growth inhibition     %          -7.4
2  COc1ccc(C2C(C)C(=O)C(C)C(c3ccc(OC)cc3)N2N=O)cc1 (stereo unspecified)  growth inhibition     %          3.15
3  CC1=C(C(=O)NCc2ccccc2)C(c2cccc([N+](=O)[O-])c2)C(C(=O)NCc2ccccc2)=C(C)N1  growth inhibition     %          19.6
4  Nc1nc(Cl)c2nc(Cl)n(C3OC(CO)C(O)C3O)c2n1 (stereo unspecified)  growth inhibition     %          -7.1
5              O=C(O)c1ccc2c(Cl)ccc3c2c1CC3  growth inhibition     %          11.7
6        COn1c2ccccc2c2c1cc1ccccc1[n+]2[O-]  growth inhibition     %         -7.15
